measure: melting point

- O=[N+]([O-])c1cccc(Nc2nccc(-c3ccncc3)n2)c1: 282 to 284 °C
- c1ccc(CCN2CCN(c3n[nH]c4ccccc34)CC2)cc1: 118 to 120 °C
- CCOc1cc(-c2cccc(C(=O)NCc3cccc4c3C(=O)N(C3CCC(=O)NC3=O)C4=O)n2)ccc1OC (stereo not given): 196 to 198 °C
- CC1(C)Cc2ccccc2C(c2cnc3ccccc3c2)N1 (stereo not given): 117 to 122 °C
- CNc1nc(Cl)nc2c(SC)ncnc12: 233 to 234 °C
- COC(=O)c1ccc(-c2nc(-c3ccc(Cl)cc3)cs2)cc1: 186 to 187 °C
- CC(=O)OC(c1ccccc1)C1CNC1=O (stereo not given): 96 to 97 °C
- CN1c2ccccc2-c2nccn2-c2ccccc21: 194 to 197 °C
- CC(=O)CCC(CCC(C)=O)(C(C)=O)C(C)=O: 59 °C
- COc1ccc(C(=O)NC2CCCCC2)c2c1OCC2C(=O)OCc1ccccc1 (stereo not given): 178 to 179 °C
